Target: NS5B from the BK strain (genotype 1b) (Hepatitis C virus genotype 1b, UniProt P26663)
Construct: NS5B from the BK strain (genotype 1b) is expressed in E. coli as a protein in which the 21 C-terminal amino acids are replaced; made in house; host or cells: E. coli
Sequence (P26663 2420-2989): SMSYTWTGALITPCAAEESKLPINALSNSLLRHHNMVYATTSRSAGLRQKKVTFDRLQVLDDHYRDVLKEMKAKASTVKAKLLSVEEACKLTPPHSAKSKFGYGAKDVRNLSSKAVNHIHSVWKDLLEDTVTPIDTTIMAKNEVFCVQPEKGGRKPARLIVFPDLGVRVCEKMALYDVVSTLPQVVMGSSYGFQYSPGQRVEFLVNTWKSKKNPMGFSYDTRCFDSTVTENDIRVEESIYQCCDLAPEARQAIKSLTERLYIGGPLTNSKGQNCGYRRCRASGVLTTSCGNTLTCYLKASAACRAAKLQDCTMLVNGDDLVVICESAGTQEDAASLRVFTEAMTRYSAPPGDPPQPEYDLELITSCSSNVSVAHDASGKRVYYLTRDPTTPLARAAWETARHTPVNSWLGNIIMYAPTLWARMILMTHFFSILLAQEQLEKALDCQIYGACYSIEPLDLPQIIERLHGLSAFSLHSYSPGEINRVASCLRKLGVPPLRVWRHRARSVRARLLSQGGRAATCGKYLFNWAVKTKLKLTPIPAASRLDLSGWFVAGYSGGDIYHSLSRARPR
Experiment: Hepatitis C polymerase inhibition, NS5B BK strain, 33P-GTP filter assay
Assay type: biochemical
Conditions: Table 1A; NS5B BK strain; read-out: HCV pol BK IC50
Source text: The ability of the compounds of the present invention to inhibit Hepatitis C Polymerase was established by the following experimental procedure: • NS5B from the BK strain (genotype 1b) is expressed in E. coli as a protein in which the 21 C-terminal amino acids are replaced with a short linker and a hexahistidine tag ([…]). […] The radioactive product is captured on a filter and quantitated after removal of the unincorporated nucleotides. […]
Measured Attribute: IC50

Below: 5 compounds and their reported IC50.
O=C(O)CC1(c2ccccc2)OCCc2c1[nH]c1c(Cl)ccc(Cl)c21 (stereo not drawn)	> 20 µM
CCCCC1(CC(=O)O)OCCc2c1[nH]c1cccc(Br)c21 (stereo not drawn)	10.3 µM
CCC1(CC(=O)O)OCCc2c1[nH]c1c(Cl)cc(C)c(C#N)c21 (stereo not drawn)	> 5 µM
CCCC1(CC(=O)O)OCCc2c1[nH]c1c(-c3ccc(C)cc3)cccc21 (stereo not drawn)	> 20 µM
CCCC1(CC(=O)O)OCCc2c1[nH]c1c(C#N)cccc21 (stereo not drawn)	> 20 µM

# return IC50 for each item in the list
1. CCC1(CC(=O)O)OCCc2c1[nH]c1c(Cl)cc(Cl)c(Cl)c21 (stereo not drawn)
2. CC1(CC(=O)O)OCCc2c1[nH]c1c(C(F)(F)F)cccc21 (stereo not drawn)
3. N#Cc1cccc2[nH]c3c(c12)CCOC3(CC(=O)O)c1ccccc1F (stereo not drawn)
4. CC1(CC(=O)O)OCCc2c1[nH]c1ccc(Cl)c(Cl)c21 (stereo not drawn)
5. O=C(O)CC1(c2ccccc2)OCCc2c1[nH]c1c(Br)cccc21 (stereo not drawn)
6. CCCC1(CC(=O)O)OCCc2c1[nH]c1c(-c3ccc(OC)cc3)cccc21 (stereo not drawn)
7. CCCC1(CC(=O)O)OCCc2c1[nH]c1c(F)ccc(C#N)c21 (stereo not drawn)
8. CC(C)C1(CC(=O)O)OCCc2c1[nH]c1c(F)cc(F)c(C#N)c21 (stereo not drawn)

Response:
1: 0.47 µM; 2: > 20 µM; 3: > 20 µM; 4: 19.1 µM; 5: > 20 µM; 6: > 20 µM; 7: 1 µM; 8: > 5 µM

# return IC50 for each item in the list
1. O=C(O)CC1(CC(=O)O)OCCc2c1[nH]c1cccc(Cl)c21
2. C/C=C/CCC1(CC(=O)O)OCCc2c1[nH]c1c(Cl)cc(Cl)c(Cl)c21 (stereo not drawn)

Response:
1. > 5 µM
2. > 20 µM

The reported numbers originate from patent US7217730B2.
